Experiment: GI S9 stability (Ex. Z), cyno intestinal S9
Assay type: in vitro ADME
Settings: cynomolgus monkey, pooled intestinal S9 fractions; cyno intestinal S9, 1.0 mg/mL protein, 2 μM substrate, pH 7.4; read-out: GIS9 Cyno T½ (per Ex. Z)
The following molecules are shown together with reported half-life at 2 μM values.

molecule.smiles | half-life at 2 μM [min]
CC(C)[C@H](N)C(=O)OC[C@@]1(C#N)O[C@@H](c2ccc3c(N)ncnn23)[C@H](O)[C@@H]1O | 2
CCC(CC)C(=O)Nc1ncnn2c([C@@H]3O[C@](C#N)(COC(=O)C(CC)CC)[C@@H](O)[C@H]3O)ccc12 | 19
CC(C)C(=O)OC[C@@]1(C#N)O[C@@H](c2ccc3c(N)ncnn23)[C@H](O)[C@@H]1O | 25
CC(C)(C)C(=O)OC[C@@]1(C#N)O[C@@H](c2ccc3c(N)ncnn23)[C@H](O)[C@@H]1O | 123
N#C[C@]1(COC(=O)CC2CCC2)O[C@@H](c2ccc3c(N)ncnn23)[C@H](O)[C@@H]1O | 3
Cc1ccc(C(=O)OC[C@@]2(C#N)O[C@@H](c3ccc4c(N)ncnn34)[C@H](O)[C@@H]2O)cc1 | 22
CC1(C(=O)OC[C@@]2(C#N)O[C@@H](c3ccc4c(N)ncnn34)[C@H](O)[C@@H]2O)CC1 | 123
N#C[C@]1(COC(=O)c2ccccc2)O[C@@H](c2ccc3c(N)ncnn23)[C@H](O)[C@@H]1O | 32
CC(=O)OC[C@@]1(C#N)O[C@@H](c2ccc3c(N)ncnn23)[C@H](O)[C@@H]1O | 9
CC(C)C(=O)Nc1ncnn2c([C@@H]3O[C@](C#N)(COC(=O)C(C)C)[C@@H](OC(=O)C(C)C)[C@H]3OC(=O)C(C)C)ccc12 | 4
CCCC(=O)OC[C@@]1(C#N)O[C@@H](c2ccc3c(N)ncnn23)[C@H](O)[C@@H]1O | 8
N#C[C@]1(COC(=O)C2CCCCC2)O[C@@H](c2ccc3c(N)ncnn23)[C@H](O)[C@@H]1O | 2
CC(C)CC(=O)OC[C@@]1(C#N)O[C@@H](c2ccc3c(N)ncnn23)[C@H](O)[C@@H]1O | 17
N#C[C@]1(COC(=O)C2CCC2)O[C@@H](c2ccc3c(N)ncnn23)[C@H](O)[C@@H]1O | 4
CC(C)(C)CC(=O)OC[C@@]1(C#N)O[C@@H](c2ccc3c(N)ncnn23)[C@H](O)[C@@H]1O | 408
N#C[C@]1(COC(=O)C2CCCC2)O[C@@H](c2ccc3c(N)ncnn23)[C@H](O)[C@@H]1O | 3
N#C[C@]1(COC(=O)C2CC2)O[C@@H](c2ccc3c(N)ncnn23)[C@H](O)[C@@H]1O | 100
CCC(=O)OC[C@@]1(C#N)O[C@@H](c2ccc3c(N)ncnn23)[C@H](O)[C@@H]1O | 6
CCC(CC)C(=O)OC[C@@]1(C#N)O[C@@H](c2ccc3c(N)ncnn23)[C@H](O)[C@@H]1O | 57
